Taken from patent US20250215104A1.

biological target: T1, human soluble urokinase plasminogen activator receptor (suPAR) (human, UniProt Q03405 23-303, limits assumed); assay: dissociation rate (kdis) on human suPAR; method not stated
T1 construct: also called hsuPAR; human suPAR
T1 sequence (Q03405 23-303 limits assumed): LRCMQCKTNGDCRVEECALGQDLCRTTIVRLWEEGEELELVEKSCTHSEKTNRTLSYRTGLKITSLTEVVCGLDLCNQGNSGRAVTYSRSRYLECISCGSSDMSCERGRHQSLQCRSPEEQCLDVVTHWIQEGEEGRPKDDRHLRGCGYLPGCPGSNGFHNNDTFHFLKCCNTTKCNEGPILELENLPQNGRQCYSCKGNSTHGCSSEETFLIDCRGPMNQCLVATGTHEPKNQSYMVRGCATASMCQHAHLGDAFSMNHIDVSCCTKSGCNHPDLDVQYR
measurementName: koff (s⁻¹)
Answer format: numeric, s⁻¹ implied, no suffix.

Worked examples, 2 binders total:
{"binder": "WAb0009 (antibody, V domains shown, constant regions not tied to this antibody; also called WAb CD0009) VH: QVQLVQSGAEVKKPGASVKVSCKASGYTFTGHYVHWVRQAPGQGLEWMGWIDHENGNTIYDQKFQGRVTMTRDTSTSTVYMELSSLRSEDTAVYYCARGYDVDWFVYWGQGTLVTVSS VL: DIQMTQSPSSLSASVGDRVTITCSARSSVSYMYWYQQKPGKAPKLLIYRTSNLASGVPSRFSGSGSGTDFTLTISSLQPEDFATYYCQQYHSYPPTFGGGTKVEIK", "readingUnit": "s⁻¹", "koff": "3.47e-07"}
{"binder": "WAb0007 (antibody, V domains shown, also called WAb CD0007) VH: QVQLVQSGAEVKKPGASVKVSCKASGYTFIGSYVHWVRQAPGQGLEWMGWIDHENGNTIYDQKFQGRVTMTRDTSTSTVYMELSSLRSEDTAVYYCARGYDVDWFVYWGQGTLVTVSS VL: DIQMTQSPSSLSASVGDRVTITCSARSSVSYMYWYQQKPGKAPKLLIYRTSSLASGVPSRFSGSGSGTDFTLTISSLQPEDFATYYCQQYHSYPPTFGGGTKVEIK", "readingUnit": "s⁻¹", "koff": "2.76e-07"}

Query binder follows.
Problem: Hello, please tell me recorded koff for this one: WAb0016 (antibody, V domains shown, constant regions not tied to this antibody; also called WAb CD0016) VH: QVQLVQSGAEVKKPGASVKVSCKASGYTFTNYYIHWVRQAPGQGLEWMGWISPSSGGTKYAQKFQGRVTMTRDTSTSTVYMELSSLRSEDTAVYYCARGYDVDWFVYWGQGTLVTVSS VL: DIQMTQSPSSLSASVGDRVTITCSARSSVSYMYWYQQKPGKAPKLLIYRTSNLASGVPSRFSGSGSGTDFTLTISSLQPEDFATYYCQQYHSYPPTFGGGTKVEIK
Result: 0.000213
